Data origin, for the record: PubChem BioAssay (NCI)

- Tested on: NCI-H460 lung
Response enum: active, inactive

Hi team, can someone confirm the assay call for CC(C)c1ccc(O)c(=O)cc1 ? inactive

Hi team, can someone confirm the assay call for COc1cccc(C2C(C#N)=C(N)Oc3cc(OC)ccc32)c1 (centres undefined) ? active

Hi team, can someone confirm the assay call for Clc1ccc(Nc2nc3ccccc3c3occc23)cc1 ? inactive

Hi team, can someone confirm the assay call for COc1ccc(C(=O)N/N=C/c2ccc(O)cc2O)cc1Nc1ccnc(C(F)(F)F)c1 ? inactive

Hi team, can someone confirm the assay call for Cc1[nH]nc(C(=O)Nc2n[nH]c3ccccc23)c1[N+](=O)[O-] ? inactive

Hi team, can someone confirm the assay call for O=C(Nc1ccccc1F)c1ccc(NC2=C(Cl)C(=O)N(Cc3ccccc3)C2=O)cc1 ? inactive

Hi team, can someone confirm the assay call for CCOC(=O)c1cnc2c(cnn2CC)c1NN=C(C)C ? inactive

Hi team, can someone confirm the assay call for Nc1c(O)c(S(=O)(=O)O)c(O)c2c1C(=O)c1ccccc1C2=O ? inactive

Hi team, can someone confirm the assay call for COC(=O)c1cc2c(cc1Cl)SC(N(N(C)C)S(=O)(=O)c1ccc(Cl)cc1)=NS2(=O)=O ? inactive

Hi team, can someone confirm the assay call for Clc1ccc(-c2cn(-c3ccccc3)c(-c3ccccc3)n2)c(Cl)c1 ? inactive

Hi team, can someone confirm the assay call for C1C[OH+]CC[OH+]CC[OH+]CC[OH+]CC[OH+]CC[OH+]1.[Cl-].[Ta+5] ? inactive

Hi team, can someone confirm the assay call for CN1c2ccccc2C(C)(C)C12CC(c1ccc(Cl)c(S(=O)(=O)N3CCCC3)c1)=NO2 (centres undefined) ? active

Hi team, can someone confirm the assay call for CC(C)(C)c1nnc2n(c1=O)N=CC(c1ccc(Br)cc1)S2 (centres undefined) ? inactive

Hi team, can someone confirm the assay call for CCCCc1nc2cc(/C=C/C(=O)NO)ccc2n1CCN(CC)CC ? active

Hi team, can someone confirm the assay call for COc1ccc(-c2[nH]ncc2-c2cc(OC)c(OC)c(OC)c2)cc1 ? active

Hi team, can someone confirm the assay call for C=C1C(=O)O[C@H]2[C@H]1CC/C(COC(=O)C(=O)c1cn(C)c3ccc(OC)cc13)=C\CC[C@@]1(C)O[C@@H]21 ? inactive

Hi team, can someone confirm the assay call for Nc1nc(Nc2ccc3c(c2)CCC(N2CCCC2)CC3)nn1-c1cc2c(nn1)-c1ccccc1CCC2 (centres undefined) ? inactive

Hi team, can someone confirm the assay call for COC(=O)[C@]12CC[C@@H](C)[C@H](C)[C@@H]1C1=CC[C@@H]3[C@@]4(C)C=C(O)C(=O)C(C)=C4CC[C@@]3(C)[C@]1(C)CC2 ? inactive

Hi team, can someone confirm the assay call for C#CC#CC#CC#CC#CC#CC#CC#CCC1OC[C@H](COC(=O)O[C@@H](C(=O)O[C@H]2C[C@@]3(O)[C@@H](OC(=O)c4ccccc4)[C@@H]4[C@]5(OC(C)=O)CO[C@@H]5C[C@H](O)[C@@]4(C)C(=O)[C@H](OC(C)=O)C(=C2C)C3(C)C)[C@@H](NC(=O)c2ccccc2)c2ccccc2)O1 (some centres undefined) ? active
